- system-tested: human CB2 receptors (Homo sapiens, UniProt P34972)
- Construct: expressed in transfected cells; host or cells: CHO cells
- Sequence (P34972 whole entry): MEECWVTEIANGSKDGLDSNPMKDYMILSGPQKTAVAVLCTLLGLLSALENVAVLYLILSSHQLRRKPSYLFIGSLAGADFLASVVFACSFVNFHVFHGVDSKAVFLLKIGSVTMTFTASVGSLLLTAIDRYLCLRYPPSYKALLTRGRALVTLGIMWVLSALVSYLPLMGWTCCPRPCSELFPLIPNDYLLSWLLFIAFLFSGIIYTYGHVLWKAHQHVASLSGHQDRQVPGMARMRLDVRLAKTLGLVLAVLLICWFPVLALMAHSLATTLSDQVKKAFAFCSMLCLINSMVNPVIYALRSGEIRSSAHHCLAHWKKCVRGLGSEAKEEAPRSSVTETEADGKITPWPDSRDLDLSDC
- assay-procedure: functional cAMP assay, CHO cells expressing human CB2
- Type: cell-based
- condition-summary: functional cAMP assay, CHO cells expressing human CB2; read-out: Human CB2 EC50
Provide the recorded pEC50 for the entries that follow.
Formally, pEC50 is defined as -log10 of the concentration c, with c in mol/L.

Q. Value wanted: pEC50 (human CB2 receptors (Homo sapiens, UniProt P34972)) of entry CC(C)(CO)NC(=O)c1ccc(C2CC2)c(OCC2CC2)c1
A. 6.89

Q. Entry to check: NC(=O)[C@@H]1CC(F)(F)CN1C(=O)c1ccc(C2CC2)c(OCCF)c1
A. 6.67

Q. Entry to check: CCC(CC)(NC(=O)c1ccc(C2CC2)c(OCC2CC2)c1)C(N)=O
A. 6.63

Q. Entry to check: CCC(CC)(NC(=O)c1ccc(C2CC2)c(OCC2CC2)c1)C(=O)O
A. 5.66

Q. Entry to check: Cn1nccc1-c1cc(C(=O)N2CC(F)(F)C[C@H]2C(N)=O)ccc1C1CC1
A. 5.72

Q. Entry to check: CC1(C(CC(N)=O)NC(=O)c2ccc(C3CC3)c(OCC(F)(F)F)c2)COC1 (centres unmarked)
A. 5.93

Q. Entry to check: Cc1nc(C(NC(=O)c2ccc(C3CC3)c(OC(C)C)c2)C2(C)COC2)no1 (centres unmarked)
A. 6.58

Q. Entry to check: Cc1nc(C(NC(=O)c2ccc(C3CC3)c(OCC(F)(F)F)c2)C2(C)COC2)no1 (centres unmarked)
A. 6.58
